Target: T1, human Gelatinase-A (human, UniProt P08253 110-660, limits assumed)
T1 sequence (looked up): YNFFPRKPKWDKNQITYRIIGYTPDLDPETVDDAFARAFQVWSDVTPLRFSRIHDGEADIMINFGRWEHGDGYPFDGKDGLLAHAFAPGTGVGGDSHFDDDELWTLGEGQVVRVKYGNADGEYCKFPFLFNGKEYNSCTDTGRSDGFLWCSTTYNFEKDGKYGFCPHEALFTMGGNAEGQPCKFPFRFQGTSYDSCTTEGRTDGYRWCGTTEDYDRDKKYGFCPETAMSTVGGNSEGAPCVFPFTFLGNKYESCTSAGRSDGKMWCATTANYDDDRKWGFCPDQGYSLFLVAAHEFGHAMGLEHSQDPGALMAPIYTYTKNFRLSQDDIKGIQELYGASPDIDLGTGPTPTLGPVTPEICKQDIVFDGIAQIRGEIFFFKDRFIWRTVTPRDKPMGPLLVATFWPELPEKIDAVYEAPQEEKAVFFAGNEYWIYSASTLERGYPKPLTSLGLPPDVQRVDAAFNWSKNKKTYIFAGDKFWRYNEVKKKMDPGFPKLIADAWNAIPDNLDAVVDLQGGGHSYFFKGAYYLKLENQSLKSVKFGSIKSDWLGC
Experiment: cell-based or functional assay
*1 amine or outer side, *2 acyl side, *3 side chain or, on linkers, in order; H or OH if unused. [ ]: non-standard residue; d: D form. The star is where a group is joined. Dnp = O=[N+]([O-])c1ccc(*)c([N+](=O)[O-])c1; C(Me) = CSC[C@H](N[*:1])C(=O)[*:2]
readout_type: Selectivity v. Coll-3 (unitless)
I only need the number, in unitless, no unit after it.

Example entries and their recorded answers appear below.
Dnp-PLGMRG-NH2 (SMILES CSCC[C@H](NC(=O)CNC(=O)[C@H](CC(C)C)NC(=O)[C@@H]1CCCN1c1ccc([N+](=O)[O-])cc1[N+](=O)[O-])C(=O)N[C@@H](CCCNC(=N)N)C(=O)NCC(N)=O) [Dnp-PLGMRG-NH2] = 2
Dnp-GPSPFHV[C(Me)]-NH2 (SMILES CSC[C@H](NC(=O)[C@@H](NC(=O)[C@H](Cc1c[nH]cn1)NC(=O)[C@H](Cc1ccccc1)NC(=O)[C@@H]1CCCN1C(=O)[C@H](CO)NC(=O)[C@@H]1CCCN1C(=O)CNc1ccc([N+](=O)[O-])cc1[N+](=O)[O-])C(C)C)C(N)=O) [Dnp-GPSPFHVC(Me)-NH2] = 18

--- query ---
[in] What Selectivity v. Coll-3 value was documented for this binder, Dnp-GPLSIQD-NH2 (SMILES CC[C@H](C)[C@H](NC(=O)[C@H](CO)NC(=O)[C@H](CC(C)C)NC(=O)[C@@H]1CCCN1C(=O)CNc1ccc([N+](=O)[O-])cc1[N+](=O)[O-])C(=O)N[C@@H](CCC(N)=O)C(=O)N[C@@H](CC(=O)O)C(N)=O) [Dnp-GPLSIQD-NH2] ?
[out] 65
